Parameter pKd: see the listing below.
Biological target: T1, human IgE CH3-CH4-M1′/Fc fusion protein (human)
T1 construct: also called M1′ (immobilized)
T1 sequence (chain, as listed by the source limits assumed): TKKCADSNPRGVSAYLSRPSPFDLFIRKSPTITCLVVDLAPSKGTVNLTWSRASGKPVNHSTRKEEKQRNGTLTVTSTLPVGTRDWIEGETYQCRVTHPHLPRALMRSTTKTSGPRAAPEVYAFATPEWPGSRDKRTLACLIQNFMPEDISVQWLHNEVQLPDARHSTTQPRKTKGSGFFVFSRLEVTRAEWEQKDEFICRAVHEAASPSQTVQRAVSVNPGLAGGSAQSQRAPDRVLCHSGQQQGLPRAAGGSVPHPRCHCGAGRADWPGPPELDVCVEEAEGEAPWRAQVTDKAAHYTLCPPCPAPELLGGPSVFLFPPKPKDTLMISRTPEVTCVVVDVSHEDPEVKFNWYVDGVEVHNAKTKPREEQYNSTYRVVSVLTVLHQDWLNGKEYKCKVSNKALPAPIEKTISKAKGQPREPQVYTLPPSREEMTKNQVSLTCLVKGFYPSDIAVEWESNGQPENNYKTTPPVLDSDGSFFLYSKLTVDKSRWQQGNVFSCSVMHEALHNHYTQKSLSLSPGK
Test: SPR Biacore A100, M1′ immobilized
Formally, pKd is defined as -log10 of the concentration c, with c in mol/L.

# annotated cases, reported pKd shown
humanized anti-IgE/M1′ antibody 26A11.v4 (antibody, V domains shown, produced as IgG) VH: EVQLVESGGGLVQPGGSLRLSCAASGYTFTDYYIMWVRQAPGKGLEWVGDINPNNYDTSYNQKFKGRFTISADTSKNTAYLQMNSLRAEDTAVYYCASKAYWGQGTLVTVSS VL: DIQMTQSPSSLSASVGDRVTITCRSSQDISNSLNWYQQKPGKAPKLLIYSTSRLHSGVPSRFSGSGSGTDFTLTISSLQPEDFATYYCQQGHTLPWTFGQGTKVEIKR = 9.05
murine anti-IgE/M1′ antibody 7A6 (antibody, V domains shown, mIgG1 hybridoma antibody; also called mu7A6; 7A6 mIgG1) VH: QVQLQQSGAELVRPGASVTLSCKASGYTFIDYEMHWVKQTPVHGLEWIGAIDPETGTTAYNQKFKGKATLTAAKSSSTAYMELRSLTSEDSAVYYCTRLRPHYDYDNAMDSWGQGTTLTVSS VL: DIVMSQSPSSLTVSVGEKVTLSCKSSQTLLYSTNQKNYLAWYQQKPGQSPKLLIYWASTRESGVPDRFTGSGSGTDFTLTISSVKAEDLAVYYCQQYYSYPYTFGGGTKVEIKR = 8.35
humanized anti-IgE/M1′ antibody 26A11.v2 (antibody, V domains shown, produced as IgG) VH: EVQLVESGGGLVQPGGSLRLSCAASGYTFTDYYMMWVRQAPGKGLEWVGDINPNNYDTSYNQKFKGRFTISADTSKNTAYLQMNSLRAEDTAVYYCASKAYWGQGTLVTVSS VL: DIQMTQSPSSLSASVGDRVTITCRSSQDISNALNWYQQKPGKAPKLLIYSTSRLHSGVPSRFSGSGSGTDFTLTISSLQPEDFATYYCQQGHTLPWTFGQGTKVEIKR = 9.52
humanized anti-IgE/M1′ antibody 47H4.v4 (antibody, V domains shown, produced as IgG) VH: EVQLVESGGGLVQPGGSLRLSCAASGFTFSDYGIAWVRQAPGKGLEWVAFISDLAYTIYYADTVTGRFTISRDNSKNTLYLQMNSLRAEDTAVYYCARDNWDALDYWGQGTLVTVSS VL: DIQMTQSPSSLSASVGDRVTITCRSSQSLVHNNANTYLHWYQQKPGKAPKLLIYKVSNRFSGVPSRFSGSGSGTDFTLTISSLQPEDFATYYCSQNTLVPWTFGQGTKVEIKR = 7.25

With those in mind, consider the next binder.
Query: Item humanized anti-IgE/M1′ antibody 47H4.v1 (antibody, V domains shown, direct CDR graft, produced as IgG) VH: EVQLVESGGGLVQPGGSLRLSCAASGFTFSDYGMAWVRQAPGKGLEWVAFISDLAYTIYYADTVTGRFTISRDNSKNTLYLQMNSLRAEDTAVYYCARDNWDAMDYWGQGTLVTVSS VL: DIQMTQSPSSLSASVGDRVTITCRSSQSLVHNNGNTYLHWYQQKPGKAPKLLIYKVSNRFSGVPSRFSGSGSGTDFTLTISSLQPEDFATYYCSQNTLVPWTFGQGTKVEIKR has what recorded pKd?
Response: 8.11

Origin of the recorded values: patent US20120149881A1
